- assay-summary: Metabolic stability in rat plasma assessed as parent compound remaining after 48 hrs by HPLC analysis
- Type: ADME, cell-free
- condition-summary: read-out: Stability
parameter: remaining at 48 h (%)
The reply should be a number in %, with the unit left off.

For this molecule ( O=C(N/N=C/N1CCN(c2cc3c(cc2F)c(=O)c(C(=O)O)cn3C2CC2)CC1)c1ccc(F)cc1 ), measured remaining at 48 h is 87

* * *

- System: Mycobacterium kansasii
- assay-summary: Antimycobacterial activity against Mycobacterium kansasii CNTC 6509/96 after 7 days
- Assay type: functional
- condition-summary: CNTC 6509/96, 168 h
Parameter: MIC. Scope: all listed entries.
The reply should be a number in µM, with the unit left off.

Solved entries:
O=C(N/N=C/NC(=O)c1cnccn1)c1ccc(C(F)(F)F)cc1 | 250
O=C(N/N=C/Nc1ccc(C(=O)O)c(O)c1)c1cccc(C(F)(F)F)c1 | 62.5

For this molecule ( O=C(N/N=C/NC(=O)c1cnccn1)c1cccc(F)c1 ), measured MIC is 250

For this molecule ( NC(=O)c1cnccn1 [PYRAZINAMIDE] ), measured MIC is 125

For this molecule ( O=C(N/N=C/Nc1ccc(C(=O)O)c(O)c1)c1ccc(C(F)(F)F)cc1 ), measured MIC is 62.5

For this molecule ( O=C(N/N=C/N1CCN(c2cc3c(cc2F)c(=O)c(C(=O)O)cn3C2CC2)CC1)c1cccc(C(F)(F)F)c1 ), measured MIC is 1

For this molecule ( O=C(N/N=C/N1CCN(c2cc3c(cc2F)c(=O)c(C(=O)O)cn3C2CC2)CC1)c1cccc(F)c1 ), measured MIC is 4

* * *

- Test system: Mycobacterium tuberculosis
- assay-summary: Antimycobacterial activity against Mycobacterium tuberculosis H37Rv ATCC 27294 after 28 days by colony forming unit determination
- Format: functional
- condition-summary: H37Rv ATCC 27294, 672 h
Parameter: log10 MIC. Scope: all listed entries.
Answers are given as log10 of MIC in µg/mL.

Solved entries:
CCn1cc(C(=O)O)c(=O)c2cc(F)c(N3CCN(/C=N/NC(=O)c4ccc(C(F)(F)F)cc4)CC3)cc21 | 0.70
Nc1ccc(C(=O)O)c(O)c1 | -0.70
CCn1cc(C(=O)O)c(=O)c2cc(F)c(N3CCNCC3)cc21 | 0.70
O=C(O)c1cn(C2CC2)c2cc(N3CCNCC3)c(F)cc2c1=O | -0.30
O=C(N/N=C/Nc1ccc(C(=O)O)c(O)c1)c1cccc(C(F)(F)F)c1 | 0.60
O=C(N/N=C/Nc1ccc(C(=O)O)c(O)c1)c1ccc(F)cc1 | 0.60
O=C(N/N=C/Nc1ccc(C(=O)O)c(O)c1)c1cccc(F)c1 | 0.30
NNC(=O)c1ccncc1 | -2.00
O=C(N/N=C/N1CCN(c2cc3c(cc2F)c(=O)c(C(=O)O)cn3C2CC2)CC1)c1ccc(F)cc1 | 0.00
O=C(O)c1ccc(N/C=N/NC(=O)c2ccccc2F)cc1O | 0.30

So the reported log10 MIC for O=C(N/N=C/N1CCN(c2cc3c(cc2F)c(=O)c(C(=O)O)cn3C2CC2)CC1)c1ccc(C(F)(F)F)cc1 , on Mycobacterium tuberculosis, turned out to be 0.00

So the reported log10 MIC for O=C(N/N=C/Nc1ccc(C(=O)O)c(O)c1)c1ccc(C(F)(F)F)cc1 , on Mycobacterium tuberculosis, turned out to be 0.60

So the reported log10 MIC for O=C(N/N=C/N1CCN(c2cc3c(cc2F)c(=O)c(C(=O)O)cn3C2CC2)CC1)c1cccc(F)c1 , on Mycobacterium tuberculosis, turned out to be 0.00

So the reported log10 MIC for CCn1cc(C(=O)O)c(=O)c2cc(F)c(N3CCN(/C=N/NC(=O)c4cccc(F)c4)CC3)cc21 , on Mycobacterium tuberculosis, turned out to be 0.78

So the reported log10 MIC for O=C(N/N=C/N1CCN(c2cc3c(cc2F)c(=O)c(C(=O)O)cn3C2CC2)CC1)c1cccc(C(F)(F)F)c1 , on Mycobacterium tuberculosis, turned out to be 0.30

* * *

Parameter: MIC. Scope: all listed entries.
- System: Mycobacterium kansasii
- assay-summary: Antimycobacterial activity against Mycobacterium kansasii CNTC 6509/96 after 7 days
- Assay type: functional
- condition-summary: CNTC 6509/96, 168 h
The reply should be a number in µM, with the unit left off.

Solved entries:
O=C(O)c1cn(C2CC2)c2cc(N3CCNCC3)c(F)cc2c1=O | 1
CCn1cc(C(=O)O)c(=O)c2cc(F)c(N3CCNCC3)cc21 | 2
CCn1cc(C(=O)O)c(=O)c2cc(F)c(N3CCN(/C=N/NC(=O)c4cccc(F)c4)CC3)cc21 | 16

Shifting focus to the compound that follows.
So the reported MIC for CCn1cc(C(=O)O)c(=O)c2cc(F)c(N3CCN(/C=N/NC(=O)c4ccc(C(F)(F)F)cc4)CC3)cc21 , on Mycobacterium kansasii, turned out to be 2

* * *

- Tested on: Mycobacterium kansasii
- assay-summary: Antimycobacterial activity against Mycobacterium kansasii CNTC My 235/80 after 14 days
- Assay type: functional
- condition-summary: CNTC My 235/80, 336 h
Parameter: MIC. Scope: all listed entries.
The reply should be a number in µM, with the unit left off.

Solved entries:
O=C(N/N=C/NC(=O)c1cnccn1)c1ccc(C(F)(F)F)cc1 | 250
O=C(N/N=C/Nc1ccc(C(=O)O)c(O)c1)c1cccc(C(F)(F)F)c1 | 125
CCn1cc(C(=O)O)c(=O)c2cc(F)c(N3CCNCC3)cc21 | 16

For this molecule ( O=C(N/N=C/N1CCN(c2cc3c(cc2F)c(=O)c(C(=O)O)cn3C2CC2)CC1)c1ccc(F)cc1 ), measured MIC is 4

For this molecule ( O=C(N/N=C/Nc1ccc(C(=O)O)c(O)c1)c1ccc(C(F)(F)F)cc1 ), measured MIC is 125

* * *

Parameter: MIC. Scope: all listed entries.
- Test system: Mycobacterium kansasii
- assay-summary: Antimycobacterial activity against Mycobacterium kansasii CNTC 6509/96 after 7 days
- Type: functional
- condition-summary: CNTC 6509/96, 168 h
The reply should be a number in µM, with the unit left off.

Solved entries:
Nc1ccc(C(=O)O)c(O)c1 | 32
CCn1cc(C(=O)O)c(=O)c2cc(F)c(N3CCN(/C=N/NC(=O)c4ccc(F)cc4)CC3)cc21 | 32

For this compound ( O=C(O)c1ccc(N/C=N/NC(=O)c2ccccc2F)cc1O ), measured MIC is 32
